- Target Of Assay: UniProtKB Q96P20
- Assay Text: Human whole blood IL-1β release assay
- Assay type: cell-based
- Set-up: Human whole blood in Li-heparin tubes was obtained from healthy donors; from tissue; host or cells: human whole blood from healthy donors
- Run Parameters: LPS 1 μg/ml, nigericin, IL-1β in supernatant (AlphaLisa), read-out: HWB IC50
Quantity Name: IC50

> print(dat)
                                   molecule   target.of.assay            value
1  Cc1cc2c(c(NC(=O)NS(C)(=O)=O)c1-c1ccnc(OCC3CCCN(C)C3)c1)CCC2 (centres unmarked)  UniProtKB Q96P20         ≤ 250 nM
2  CC(C)c1cc(F)cc(-c2ccnc(OC3CCN(C)CC3)c2)c1NC(=O)NS(C)(=O)=O  UniProtKB Q96P20         ≤ 250 nM
3  CN(C)C1CCC(Oc2cc(-c3ccc4c(c3NC(=O)NS(C)(=O)=O)CCC4)ccn2)CC1 (centres unmarked)  UniProtKB Q96P20         ≤ 250 nM
4  CN1CCC(Oc2cc(-c3cc(F)cc(C4CCCCC4)c3NC(=O)NS(C)(=O)=O)ccn2)CC1  UniProtKB Q96P20  1000 to 2000 nM
5  Cc1cc2c(c(NC(=O)NS(C)(=O)=O)c1-c1ccnc(OC3CCOC3)c1)CCC2 (centres unmarked)  UniProtKB Q96P20    250 to 500 nM
6  C=CCN1CCC(Oc2cc(-c3ccc4c(c3NC(=O)NS(=O)(=O)CC=C)CCC4)ccn2)CC1  UniProtKB Q96P20  1000 to 2000 nM
7  CC(C)n1ccc(S(=O)(=O)NC(=O)Nc2c(-c3ccnc(OC4CCC4)c3)ccc3c2CCC3)n1  UniProtKB Q96P20  1000 to 2000 nM
8  CN(C)CC(C)(C)n1ccc(S(=O)(=O)NC(=O)Nc2c(-c3ccnc(OC4CC4)c3)ccc3c2CCC3)n1  UniProtKB Q96P20    250 to 500 nM

----------
- Target Of Assay: NLRP3 (Homo sapiens, UniProt Q96P20)
- Sequence (Q96P20 whole entry): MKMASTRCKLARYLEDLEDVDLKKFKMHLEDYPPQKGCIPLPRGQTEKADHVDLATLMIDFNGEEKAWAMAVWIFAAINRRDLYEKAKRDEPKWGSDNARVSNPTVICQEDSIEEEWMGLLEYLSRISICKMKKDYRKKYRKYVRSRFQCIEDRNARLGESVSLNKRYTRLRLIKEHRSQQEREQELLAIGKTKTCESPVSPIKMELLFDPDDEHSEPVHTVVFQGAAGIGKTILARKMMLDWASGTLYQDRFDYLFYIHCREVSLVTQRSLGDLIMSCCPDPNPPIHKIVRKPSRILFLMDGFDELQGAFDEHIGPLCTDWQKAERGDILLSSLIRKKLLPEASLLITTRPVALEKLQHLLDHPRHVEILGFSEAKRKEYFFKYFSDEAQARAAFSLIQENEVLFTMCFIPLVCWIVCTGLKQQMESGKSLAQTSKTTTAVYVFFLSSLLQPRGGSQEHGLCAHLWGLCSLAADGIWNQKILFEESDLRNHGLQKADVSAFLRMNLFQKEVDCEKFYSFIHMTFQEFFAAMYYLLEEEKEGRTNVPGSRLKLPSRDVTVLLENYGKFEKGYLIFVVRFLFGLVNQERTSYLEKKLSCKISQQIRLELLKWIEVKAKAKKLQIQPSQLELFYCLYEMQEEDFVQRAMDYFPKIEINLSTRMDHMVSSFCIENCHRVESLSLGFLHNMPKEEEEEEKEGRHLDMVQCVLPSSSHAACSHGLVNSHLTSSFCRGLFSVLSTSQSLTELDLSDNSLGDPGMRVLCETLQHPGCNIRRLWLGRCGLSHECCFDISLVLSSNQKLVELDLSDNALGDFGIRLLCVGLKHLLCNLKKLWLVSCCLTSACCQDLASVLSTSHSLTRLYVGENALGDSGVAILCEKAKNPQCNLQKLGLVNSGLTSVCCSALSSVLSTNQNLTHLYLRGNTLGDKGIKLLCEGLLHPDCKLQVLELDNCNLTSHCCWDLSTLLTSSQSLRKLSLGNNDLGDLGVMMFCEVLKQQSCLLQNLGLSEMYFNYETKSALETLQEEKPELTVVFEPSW
- Assay Text: THP-1 cells pyroptosis assay
- Type: cell-based
- Parameters: Seed THP-1 cells (25,000 cells/well) containing 1.0 μg/ml LPS; host or cells: THP-1 cells
- Run Parameters: LPS 1 μg/ml, nigericin 5 μM, resazurin readout
- Protocol: The cells were routinely passaged and grown to confluency (˜10^6 cells/ml). On the day of the experiment, THP-1 cells were harvested and resuspended into RPMI medium (without FBS). The cells were then counted and viability (>90%) checked by Trypan blue (Sigma #T8154). […] To this diluted cell solution was added LPS (Sigma #L4524) to give a 1 μg/ml Final Assay Concentration (FAC). 40 μl of the final preparation was aliquoted into each well of a 96-well plate. […]
Documented IC50 across a set of molecules
Quantity Name: IC50

> print(dat)
                                   molecule            value
1  CC(C)n1ccc(S(=O)(=O)NC(=O)Nc2c(-c3ccnc(Oc4ccccc4)c3)ccc3c2CCC3)n1 [Example 77]         ≤ 250 nM
2  CN1CCC(Oc2cc(-c3cc(F)cc(-c4ccccc4)c3NC(=O)NS(C)(=O)=O)ccn2)CC1 [Example 42]  1000 to 2000 nM
3  CN1CCC(Oc2cc(-c3cc(F)cc(C4CCCC4)c3NC(=O)NS(C)(=O)=O)ccn2)CC1 [Example 41]         ≤ 250 nM
4  Cc1cc2c(c(NC(=O)NS(=N)(=O)c3ccccc3)c1-c1ccnc(OC3CCN(C)CC3)c1)CCC2 (centres unmarked) [Example 79]         ≤ 250 nM
5  CC(C)n1ccc(S(=O)(=O)NC(=O)Nc2c(-c3ccnc(OC4CCN(C)C4)c3)ccc3c2CCC3)n1 (centres unmarked) [Example 76]   500 to 1000 nM
6  CC(C)n1ccc(S(=O)(=O)NC(=O)Nc2c(-c3ccnc(C4CC4)c3)ccc3c2CCC3)n1 [Example 69]         ≤ 250 nM
7  COc1cc(-c2cc(F)cc(C(C)C)c2NC(=O)NS(=O)(=O)c2ccn(C(C)C)n2)cc(C)n1 [comp ex 2, reference compound]  2000 to 5000 nM
8  CN(C)CC(C)(C)n1ccc(S(=O)(=O)NC(=O)Nc2c(-c3ccnc(OC4CC4)c3)ccc3c2CCC3)n1 [Example 66]         ≤ 250 nM
